Values were extracted from ChEMBL document CHEMBL1123104.

# tested-on: Monoamine oxidase (Rattus norvegicus, UniProt P19643+P21396)
# Sequence (P19643 whole entry): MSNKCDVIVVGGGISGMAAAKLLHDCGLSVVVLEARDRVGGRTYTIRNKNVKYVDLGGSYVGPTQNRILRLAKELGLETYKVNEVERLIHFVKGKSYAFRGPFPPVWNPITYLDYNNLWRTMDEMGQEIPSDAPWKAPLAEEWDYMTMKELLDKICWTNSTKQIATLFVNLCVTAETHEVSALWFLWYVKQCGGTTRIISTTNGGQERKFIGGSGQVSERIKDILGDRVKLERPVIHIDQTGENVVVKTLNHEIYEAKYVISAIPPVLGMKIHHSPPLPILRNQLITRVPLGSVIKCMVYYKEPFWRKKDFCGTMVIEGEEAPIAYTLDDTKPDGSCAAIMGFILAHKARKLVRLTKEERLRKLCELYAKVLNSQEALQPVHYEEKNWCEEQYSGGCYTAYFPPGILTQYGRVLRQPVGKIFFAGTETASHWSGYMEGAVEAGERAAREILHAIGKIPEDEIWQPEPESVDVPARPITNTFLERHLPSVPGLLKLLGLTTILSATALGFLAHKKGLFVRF
# Sequence (P21396 whole entry): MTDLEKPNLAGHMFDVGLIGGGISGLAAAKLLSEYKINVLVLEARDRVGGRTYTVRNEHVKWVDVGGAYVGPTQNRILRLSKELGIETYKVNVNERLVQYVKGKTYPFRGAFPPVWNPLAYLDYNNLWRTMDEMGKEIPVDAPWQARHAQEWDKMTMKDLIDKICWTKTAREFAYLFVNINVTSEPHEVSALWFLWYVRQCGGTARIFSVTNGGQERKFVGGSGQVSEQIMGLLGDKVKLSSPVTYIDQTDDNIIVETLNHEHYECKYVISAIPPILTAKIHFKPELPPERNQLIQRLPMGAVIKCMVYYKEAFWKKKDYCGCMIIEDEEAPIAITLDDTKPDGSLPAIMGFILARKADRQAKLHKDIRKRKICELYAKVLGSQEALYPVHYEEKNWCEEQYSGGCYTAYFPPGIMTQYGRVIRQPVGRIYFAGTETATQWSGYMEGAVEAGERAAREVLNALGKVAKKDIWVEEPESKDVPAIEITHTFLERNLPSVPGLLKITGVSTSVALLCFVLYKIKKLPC
# assay-procedure: Inhibitory activity against rat brain mitochondrial Monoamine oxidase
Bucketed by reported IC50, buckets being bottom = under 10 nM, middle = from 10 nM up to 40000 nM, top = 40000 nM and over

[
  {
    "smiles-record": "Cl.NC/C(=C/F)c1cccc(C(F)(F)F)c1",
    "tested-on": "Monoamine oxidase (Rattus norvegicus, UniProt P19643+P21396)",
    "classification": "bottom"
  },
  {
    "smiles-record": "Cl.NC/C(=C/F)c1ccc(Cl)cc1",
    "tested-on": "Monoamine oxidase (Rattus norvegicus, UniProt P19643+P21396)",
    "classification": "middle"
  },
  {
    "smiles-record": "C=C(CN)c1ccccc1.Cl",
    "tested-on": "Monoamine oxidase (Rattus norvegicus, UniProt P19643+P21396)",
    "classification": "top"
  },
  {
    "smiles-record": "Cl.NCC(=C(Br)Br)c1ccccc1",
    "tested-on": "Monoamine oxidase (Rattus norvegicus, UniProt P19643+P21396)",
    "classification": "top"
  },
  {
    "smiles-record": "COc1cccc(/C(=C\\F)CN)c1.Cl",
    "tested-on": "Monoamine oxidase (Rattus norvegicus, UniProt P19643+P21396)",
    "classification": "bottom"
  },
  {
    "smiles-record": "COc1ccccc1/C(=C\\F)CN.Cl",
    "tested-on": "Monoamine oxidase (Rattus norvegicus, UniProt P19643+P21396)",
    "classification": "middle"
  },
  {
    "smiles-record": "Cl.NC/C(=C/F)c1ccccc1",
    "tested-on": "Monoamine oxidase (Rattus norvegicus, UniProt P19643+P21396)",
    "classification": "middle"
  }
]
